Could you please report measured normalized RNA/DNA level without ligand (log10) for the items listed next?
B1: library; a variant is named by its letters at N, in order (parent)
chain: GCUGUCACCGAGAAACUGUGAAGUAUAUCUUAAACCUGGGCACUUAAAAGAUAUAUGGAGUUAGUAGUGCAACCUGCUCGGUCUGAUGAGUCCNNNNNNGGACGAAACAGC

variants of: B1; assay: normalized RNA/DNA level without ligand (relative to sTRSVctl = 100) (log10 (% of sTRSVctl)); HEK293T; ligand: cyclic di-GMP (c-di-GMP-II aptamer); higher = less ribozyme self-cleavage, higher mRNA level; conditions: reporter: mCherry (pCS4076), ligand present: no
One number for each entry.

                             sequence_input  result_value
0  GCUGUCACCGAGAAACUGUGAAGUAUAUCUUAAACCUGGGCACUUAAAAGAUAUAUGGAGUUAGUAGUGCAACCUGCUCGGUCUGAUGAGUCCGGCAGCGGACGAAACAGC [GGCAGC]          1.72
1  GCUGUCACCGAGAAACUGUGAAGUAUAUCUUAAACCUGGGCACUUAAAAGAUAUAUGGAGUUAGUAGUGCAACCUGCUCGGUCUGAUGAGUCCUCAAGUGGACGAAACAGC [UCAAGU]          1.52
2  GCUGUCACCGAGAAACUGUGAAGUAUAUCUUAAACCUGGGCACUUAAAAGAUAUAUGGAGUUAGUAGUGCAACCUGCUCGGUCUGAUGAGUCCAAGUUUGGACGAAACAGC [AAGUUU]          1.72
3  GCUGUCACCGAGAAACUGUGAAGUAUAUCUUAAACCUGGGCACUUAAAAGAUAUAUGGAGUUAGUAGUGCAACCUGCUCGGUCUGAUGAGUCCAUUACCGGACGAAACAGC [AUUACC]          1.73
4  GCUGUCACCGAGAAACUGUGAAGUAUAUCUUAAACCUGGGCACUUAAAAGAUAUAUGGAGUUAGUAGUGCAACCUGCUCGGUCUGAUGAGUCCCAUACUGGACGAAACAGC [CAUACU]          1.51
5  GCUGUCACCGAGAAACUGUGAAGUAUAUCUUAAACCUGGGCACUUAAAAGAUAUAUGGAGUUAGUAGUGCAACCUGCUCGGUCUGAUGAGUCCAGUAAGGGACGAAACAGC [AGUAAG]          1.53
6  GCUGUCACCGAGAAACUGUGAAGUAUAUCUUAAACCUGGGCACUUAAAAGAUAUAUGGAGUUAGUAGUGCAACCUGCUCGGUCUGAUGAGUCCAAUCCCGGACGAAACAGC [AAUCCC]          1.77
7  GCUGUCACCGAGAAACUGUGAAGUAUAUCUUAAACCUGGGCACUUAAAAGAUAUAUGGAGUUAGUAGUGCAACCUGCUCGGUCUGAUGAGUCCGUACUCGGACGAAACAGC [GUACUC]          1.54

Below is a list of variants. For each, state its recorded normalized RNA/DNA level without ligand (log10).
1. GCUGUCACCGAGAAACUGUGAAGUAUAUCUUAAACCUGGGCACUUAAAAGAUAUAUGGAGUUAGUAGUGCAACCUGCUCGGUCUGAUGAGUCCGACGGUGGACGAAACAGC [GACGGU]
2. GCUGUCACCGAGAAACUGUGAAGUAUAUCUUAAACCUGGGCACUUAAAAGAUAUAUGGAGUUAGUAGUGCAACCUGCUCGGUCUGAUGAGUCCGAACGAGGACGAAACAGC [GAACGA]
3. GCUGUCACCGAGAAACUGUGAAGUAUAUCUUAAACCUGGGCACUUAAAAGAUAUAUGGAGUUAGUAGUGCAACCUGCUCGGUCUGAUGAGUCCCUUCGAGGACGAAACAGC [CUUCGA]

Response:
1. 1.63
2. 1.46
3. 1.71

Below is a list of variants. For each, state its recorded normalized RNA/DNA level without ligand (log10).
1. GCUGUCACCGAGAAACUGUGAAGUAUAUCUUAAACCUGGGCACUUAAAAGAUAUAUGGAGUUAGUAGUGCAACCUGCUCGGUCUGAUGAGUCCAGUCGAGGACGAAACAGC [AGUCGA]
2. GCUGUCACCGAGAAACUGUGAAGUAUAUCUUAAACCUGGGCACUUAAAAGAUAUAUGGAGUUAGUAGUGCAACCUGCUCGGUCUGAUGAGUCCGGGCGCGGACGAAACAGC [GGGCGC]
3. GCUGUCACCGAGAAACUGUGAAGUAUAUCUUAAACCUGGGCACUUAAAAGAUAUAUGGAGUUAGUAGUGCAACCUGCUCGGUCUGAUGAGUCCUGCGAUGGACGAAACAGC [UGCGAU]
4. GCUGUCACCGAGAAACUGUGAAGUAUAUCUUAAACCUGGGCACUUAAAAGAUAUAUGGAGUUAGUAGUGCAACCUGCUCGGUCUGAUGAGUCCCCUAGAGGACGAAACAGC [CCUAGA]
5. GCUGUCACCGAGAAACUGUGAAGUAUAUCUUAAACCUGGGCACUUAAAAGAUAUAUGGAGUUAGUAGUGCAACCUGCUCGGUCUGAUGAGUCCGUAUGCGGACGAAACAGC [GUAUGC]
6. GCUGUCACCGAGAAACUGUGAAGUAUAUCUUAAACCUGGGCACUUAAAAGAUAUAUGGAGUUAGUAGUGCAACCUGCUCGGUCUGAUGAGUCCACUGCAGGACGAAACAGC [ACUGCA]

Response:
1: 1.71; 2: 1.84; 3: 1.6; 4: 1.59; 5: 1.56; 6: 1.64

Below is a list of variants. For each, state its recorded normalized RNA/DNA level without ligand (log10).
1. GCUGUCACCGAGAAACUGUGAAGUAUAUCUUAAACCUGGGCACUUAAAAGAUAUAUGGAGUUAGUAGUGCAACCUGCUCGGUCUGAUGAGUCCGAAAAAGGACGAAACAGC [GAAAAA]
2. GCUGUCACCGAGAAACUGUGAAGUAUAUCUUAAACCUGGGCACUUAAAAGAUAUAUGGAGUUAGUAGUGCAACCUGCUCGGUCUGAUGAGUCCUAUACCGGACGAAACAGC [UAUACC]
3. GCUGUCACCGAGAAACUGUGAAGUAUAUCUUAAACCUGGGCACUUAAAAGAUAUAUGGAGUUAGUAGUGCAACCUGCUCGGUCUGAUGAGUCCAAGUUAGGACGAAACAGC [AAGUUA]
4. GCUGUCACCGAGAAACUGUGAAGUAUAUCUUAAACCUGGGCACUUAAAAGAUAUAUGGAGUUAGUAGUGCAACCUGCUCGGUCUGAUGAGUCCCUUCAUGGACGAAACAGC [CUUCAU]
5. GCUGUCACCGAGAAACUGUGAAGUAUAUCUUAAACCUGGGCACUUAAAAGAUAUAUGGAGUUAGUAGUGCAACCUGCUCGGUCUGAUGAGUCCGGCUAUGGACGAAACAGC [GGCUAU]
6. GCUGUCACCGAGAAACUGUGAAGUAUAUCUUAAACCUGGGCACUUAAAAGAUAUAUGGAGUUAGUAGUGCAACCUGCUCGGUCUGAUGAGUCCAGACGAGGACGAAACAGC [AGACGA]
7. GCUGUCACCGAGAAACUGUGAAGUAUAUCUUAAACCUGGGCACUUAAAAGAUAUAUGGAGUUAGUAGUGCAACCUGCUCGGUCUGAUGAGUCCAGCCAAGGACGAAACAGC [AGCCAA]

Response:
1: 1.41; 2: 1.76; 3: 1.53; 4: 1.58; 5: 1.66; 6: 1.54; 7: 1.53

Below is a list of variants. For each, state its recorded normalized RNA/DNA level without ligand (log10).
1. GCUGUCACCGAGAAACUGUGAAGUAUAUCUUAAACCUGGGCACUUAAAAGAUAUAUGGAGUUAGUAGUGCAACCUGCUCGGUCUGAUGAGUCCUCUUUGGGACGAAACAGC [UCUUUG]
2. GCUGUCACCGAGAAACUGUGAAGUAUAUCUUAAACCUGGGCACUUAAAAGAUAUAUGGAGUUAGUAGUGCAACCUGCUCGGUCUGAUGAGUCCACCGACGGACGAAACAGC [ACCGAC]
3. GCUGUCACCGAGAAACUGUGAAGUAUAUCUUAAACCUGGGCACUUAAAAGAUAUAUGGAGUUAGUAGUGCAACCUGCUCGGUCUGAUGAGUCCCUCAUAGGACGAAACAGC [CUCAUA]
4. GCUGUCACCGAGAAACUGUGAAGUAUAUCUUAAACCUGGGCACUUAAAAGAUAUAUGGAGUUAGUAGUGCAACCUGCUCGGUCUGAUGAGUCCUGUGCCGGACGAAACAGC [UGUGCC]
5. GCUGUCACCGAGAAACUGUGAAGUAUAUCUUAAACCUGGGCACUUAAAAGAUAUAUGGAGUUAGUAGUGCAACCUGCUCGGUCUGAUGAGUCCAUGAAUGGACGAAACAGC [AUGAAU]
6. GCUGUCACCGAGAAACUGUGAAGUAUAUCUUAAACCUGGGCACUUAAAAGAUAUAUGGAGUUAGUAGUGCAACCUGCUCGGUCUGAUGAGUCCCCCAUAGGACGAAACAGC [CCCAUA]
7. GCUGUCACCGAGAAACUGUGAAGUAUAUCUUAAACCUGGGCACUUAAAAGAUAUAUGGAGUUAGUAGUGCAACCUGCUCGGUCUGAUGAGUCCUCAUAGGGACGAAACAGC [UCAUAG]

Response:
1.73
1.61
1.43
1.85
1.53
1.4
1.65

Below is a list of variants. For each, state its recorded normalized RNA/DNA level without ligand (log10).
1. GCUGUCACCGAGAAACUGUGAAGUAUAUCUUAAACCUGGGCACUUAAAAGAUAUAUGGAGUUAGUAGUGCAACCUGCUCGGUCUGAUGAGUCCCAUGCUGGACGAAACAGC [CAUGCU]
2. GCUGUCACCGAGAAACUGUGAAGUAUAUCUUAAACCUGGGCACUUAAAAGAUAUAUGGAGUUAGUAGUGCAACCUGCUCGGUCUGAUGAGUCCUAAUCGGGACGAAACAGC [UAAUCG]
3. GCUGUCACCGAGAAACUGUGAAGUAUAUCUUAAACCUGGGCACUUAAAAGAUAUAUGGAGUUAGUAGUGCAACCUGCUCGGUCUGAUGAGUCCAGUCGGGGACGAAACAGC [AGUCGG]

Response:
1: 1.72; 2: 1.7; 3: 1.8

Below is a list of variants. For each, state its recorded normalized RNA/DNA level without ligand (log10).
1. GCUGUCACCGAGAAACUGUGAAGUAUAUCUUAAACCUGGGCACUUAAAAGAUAUAUGGAGUUAGUAGUGCAACCUGCUCGGUCUGAUGAGUCCAAGUCAGGACGAAACAGC [AAGUCA]
2. GCUGUCACCGAGAAACUGUGAAGUAUAUCUUAAACCUGGGCACUUAAAAGAUAUAUGGAGUUAGUAGUGCAACCUGCUCGGUCUGAUGAGUCCACUGUGGGACGAAACAGC [ACUGUG]
3. GCUGUCACCGAGAAACUGUGAAGUAUAUCUUAAACCUGGGCACUUAAAAGAUAUAUGGAGUUAGUAGUGCAACCUGCUCGGUCUGAUGAGUCCGCCGUCGGACGAAACAGC [GCCGUC]

Response:
1: 1.63; 2: 1.6; 3: 1.54

Below is a list of variants. For each, state its recorded normalized RNA/DNA level without ligand (log10).
1. GCUGUCACCGAGAAACUGUGAAGUAUAUCUUAAACCUGGGCACUUAAAAGAUAUAUGGAGUUAGUAGUGCAACCUGCUCGGUCUGAUGAGUCCGCAAACGGACGAAACAGC [GCAAAC]
2. GCUGUCACCGAGAAACUGUGAAGUAUAUCUUAAACCUGGGCACUUAAAAGAUAUAUGGAGUUAGUAGUGCAACCUGCUCGGUCUGAUGAGUCCAUACCAGGACGAAACAGC [AUACCA]

Response:
[1.39, 1.66]

Below is a list of variants. For each, state its recorded normalized RNA/DNA level without ligand (log10).
1. GCUGUCACCGAGAAACUGUGAAGUAUAUCUUAAACCUGGGCACUUAAAAGAUAUAUGGAGUUAGUAGUGCAACCUGCUCGGUCUGAUGAGUCCGCCUCCGGACGAAACAGC [GCCUCC]
2. GCUGUCACCGAGAAACUGUGAAGUAUAUCUUAAACCUGGGCACUUAAAAGAUAUAUGGAGUUAGUAGUGCAACCUGCUCGGUCUGAUGAGUCCACUUGAGGACGAAACAGC [ACUUGA]
3. GCUGUCACCGAGAAACUGUGAAGUAUAUCUUAAACCUGGGCACUUAAAAGAUAUAUGGAGUUAGUAGUGCAACCUGCUCGGUCUGAUGAGUCCUCAUACGGACGAAACAGC [UCAUAC]
4. GCUGUCACCGAGAAACUGUGAAGUAUAUCUUAAACCUGGGCACUUAAAAGAUAUAUGGAGUUAGUAGUGCAACCUGCUCGGUCUGAUGAGUCCCUAUUUGGACGAAACAGC [CUAUUU]

Response:
[1.71, 1.49, 1.67, 1.59]

Hey, just so you know, these numbers are from the supplement of paper PMC6757056.
